system: EKVX; assay: NCI tumour cell line growth inhibition, 48 h
Calls of active or inactive are those of the source. Rule as the data show it: active = GI50 up to about 1.1 µM and inactive = higher.
Measured GI50 accompanies every entry in the list below.

Input line: Would you mind telling me what GI50 value was observed for Cc1cc(N(CCC#N)S(=O)(=O)c2ccccc2)ccc1C=O ?
Output line: > 100 µM (inactive)

====

test system: OVCAR-4; experiment: NCI tumour cell line growth inhibition, 48 h
Activity calls are given as the source filed them. Cut-off read from the data, not from the text of the source: active = GI50 up to about 1.1 µM and inactive = higher.
experimental.endpoint: GI50

Input line: Would you mind telling me what GI50 value was observed for COc1ccc(CC2C(=O)NC(C)C(=O)N(C)C3Cc4ccc(cc4)Oc4cc(ccc4O)CC(C(=O)NC(C)C(=O)NC(C)C(=O)N2C)N(C)C3=O)cc1 (configuration not stated) ?
Output line: 0.0175 µM (active)

Input line: Would you mind telling me what GI50 value was observed for N=c1oc2c(Cl)cc(Cl)cc2cc1C(=O)Nc1cccc2ccccc12 ?
Output line: 2.49 µM (inactive)

Input line: Would you mind telling me what GI50 value was observed for COc1cc(C(C)c2cc3c(cc2OCCNC(=O)COc2cc4c(cc2C(C)c2cc(OC)c(OC)c(OC)c2)OCO4)OCO3)cc(OC)c1OC (configuration not stated) ?
Output line: > 100 µM (inactive)

====

tested on: HOP-62; assay: NCI tumour cell line growth inhibition, 48 h
The source made the active and inactive calls. Cut-off read from the data, not from the text of the source: active = GI50 up to about 1.1 µM and inactive = higher.
experimental.endpoint: GI50

Consider the following illustrative entries.
NC1CCC2(O)c3ccccc3C2C1 (stereo not given): > 100 µM (inactive)
N#CC(C#N)=C(N)/C(C#N)=C/c1ccc(O)c(O)c1: 15.5 µM (inactive)
COC(=O)CC1C(C)(C)C(=O)C2CC3=C4CC(=O)OC(c5ccoc5)C4(C)CCC3C1(C)C2=O (stereo not given): > 100 µM (inactive)

Input line: Would you mind telling me what GI50 value was observed for C[C@]12CCC3[C@@H](CC[C@@H]4c5nonc5CC[C@]34C)C1CCC(=O)N2 (stereo not given in full) ?
Output line: > 100 µM (inactive)

Input line: Would you mind telling me what GI50 value was observed for Cc1cc(N(CCC#N)S(=O)(=O)c2ccccc2)ccc1C=O ?
Output line: > 100 µM (inactive)

====

tested on: UO-31; experiment: NCI tumour cell line growth inhibition, 48 h
The source made the active and inactive calls. Rule as the data show it: active = GI50 up to about 1.1 µM and inactive = higher.
experimental.endpoint: GI50

Consider the following illustrative entries.
CCOC(=O)/C=C1\CCCC12OCCO2: > 100 µM (inactive)
CCOC(=O)c1cc2nc3ccccc3c(=O)n2c2ccccc12: > 10 µM (inactive)
CC1=NN2C(c3ccc(C)cc3)=CSC2=NC(C)(C)C1: > 100 µM (inactive)

Input line: Would you mind telling me what GI50 value was observed for COC(=O)NC(Cc1ccccc1)NC(C)=O (stereo unspecified) ?
Output line: > 100 µM (inactive)

Input line: Would you mind telling me what GI50 value was observed for CC(NC(=O)C(=O)N/N=C1\C[C@@H](c2ccccc2)Nc2ccccc21)c1ccccc1 (stereo partly specified) ?
Output line: 33 µM (inactive)

Input line: Would you mind telling me what GI50 value was observed for [O-][S+](Nc1ccccc1)c1ccc(-c2ccccc2)cc1 (stereo unspecified) ?
Output line: > 100 µM (inactive)

====

tested on: RXF 393; test: NCI tumour cell line growth inhibition, 48 h
Active and inactive are the calls of the source. Rule as the data show it: active = GI50 up to about 1.1 µM and inactive = higher.
The categories you may choose from are active, inactive

Worked set:
O=c1n(CC2CO2)c2ccccc2n1CC1CS1 (stereo unspecified): inactive
CCC1CCCCN1CC(C(C)=O)C(c1ccccc1)c1c(O)c2ccccc2oc1=O (stereo unspecified): inactive
COC1(OC)N=C(N)C2(C#N)C(C)=C3NCN(C)N=C3C12C#N (stereo unspecified): inactive

Input line: Record lookup: outcome of this test for CC(C)(C)OC[C@H](O)CC#N ?
Output line: inactive

Input line: Record lookup: outcome of this test for NC(=O)c1nnsc1N/N=C/c1ccc([N+](=O)[O-])cc1 ?
Output line: inactive
